The reported numbers originate from paper PMC1277809.

# Target Of Assay: T1, LexA (DinR) wild type (Bacillus subtilis, UniProt P31080 1-205)
# T1 sequence: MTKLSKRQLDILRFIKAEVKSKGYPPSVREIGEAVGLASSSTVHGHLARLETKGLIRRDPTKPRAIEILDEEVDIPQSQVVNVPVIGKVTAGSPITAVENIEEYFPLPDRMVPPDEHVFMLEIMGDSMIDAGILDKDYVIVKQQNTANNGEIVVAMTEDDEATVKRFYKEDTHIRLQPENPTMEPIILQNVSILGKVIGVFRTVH
# Experimental Details: competition EMSA
Measure: pKi
In simple prose, pKi is minus the logarithm base ten of a concentration in moles per litre.

What does the data say about its pKi? Entry: recA op C1G,T5C (dsDNA) DNA 1: GGGGGGGGAACATGCGTTCGCCCCCC DNA 2: GGGGGGCGAACGCATGTTCCCCCCCC
9.00
